Biological target: U1A L49S (UniProt P09012 10-89, L49S)
Sequence (P09012 10-89 L49S): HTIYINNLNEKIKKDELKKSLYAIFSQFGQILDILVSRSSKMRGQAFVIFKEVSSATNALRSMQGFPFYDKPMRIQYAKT
Test: fluorescence polarization
Metric Name: Kd
Answer format: number, then unit.

Query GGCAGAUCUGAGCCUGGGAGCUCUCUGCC (structured_RNA) [TAR RNA] yields Kd of 12.4 µM
